Tested on: Calu-3
Protocol Description: relative viability EC50 (midpoint between 100% and the lowest measured viability); higher = less toxic
Experimental Conditions: 72 h
Readout Type: relative viability EC50

Observe how each entry below is paired with its result.
Provide the documented relative viability EC50 with Calu-3 as the system for N#CC(c1ccc(Cl)cc1)c1c(Cl)cc(-n2ncc(=O)[nH]c2=O)cc1Cl (stereo not given)
> 10 µM

Provide the documented relative viability EC50 with Calu-3 as the system for `CC(C)[C@H](N)C(=O)OCCOCn1cnc2c(=O)nc(N)[nH]c21`
> 10 µM

Provide the documented relative viability EC50 with Calu-3 as the system for `C[n+]1c2cc(N)ccc2cc2ccc(N)cc21.Nc1ccc2cc3ccc(N)cc3nc2c1`
1.35 µM

Provide the documented relative viability EC50 with Calu-3 as the system for `O=C1CCc2ccc(OCCCCN3CCN(c4cccc(Cl)c4Cl)CC3)cc2N1`
> 10 µM

Please examine the following record next.
Provide the documented relative viability EC50 with Calu-3 as the system for `Oc1c(Cl)cc(Cl)c2cccnc12`
> 10 µM
